SYSTEM: Amine oxidase [flavin-containing] A (Homo sapiens)
SETTINGS: bti-tn-5b1-4
Description: Inhibition of human recombinant MAOA expressed in baculovirus infected BTI-TN-5B1-4 insect cells assessed as hydrogen peroxide production from p-tyramine by amplex red assay
pIC50: −log10 of the molar value.
TEST_READOUT: pIC50

| COMPOUND | EXPERIMENTAL_RESULT |
| --- | --- |
| CC1CCC(=NNc2nc(-c3ccc(Cl)cc3Cl)cs2)CC1 (stereo unspecified) | 4.09 |

###

SYSTEM: Amine oxidase [flavin-containing] A (Homo sapiens, UniProt P21397)
Sequence (P21397 whole entry): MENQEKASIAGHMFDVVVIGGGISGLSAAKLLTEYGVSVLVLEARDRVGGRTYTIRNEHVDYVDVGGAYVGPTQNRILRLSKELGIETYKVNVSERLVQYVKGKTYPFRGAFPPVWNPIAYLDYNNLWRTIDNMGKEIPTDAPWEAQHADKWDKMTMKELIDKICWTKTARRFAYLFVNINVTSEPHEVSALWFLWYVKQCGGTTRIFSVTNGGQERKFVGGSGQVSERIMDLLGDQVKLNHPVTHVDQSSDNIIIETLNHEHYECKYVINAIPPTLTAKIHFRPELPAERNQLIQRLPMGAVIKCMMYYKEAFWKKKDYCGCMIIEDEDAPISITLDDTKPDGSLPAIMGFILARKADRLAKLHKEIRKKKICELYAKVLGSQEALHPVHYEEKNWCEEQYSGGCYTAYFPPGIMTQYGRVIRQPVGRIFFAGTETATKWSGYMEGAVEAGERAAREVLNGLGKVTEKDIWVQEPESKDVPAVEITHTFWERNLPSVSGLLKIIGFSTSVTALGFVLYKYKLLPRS
MEASUREMENT_DESCRIPTION: biochemical
Description: Inhibition of human recombinant MAOA expressed in baculovirus infected BTI-TN-5B1-4 insect cells assessed as hydrogen peroxide production from p-tyramine by amplex red assay
TEST_READOUT: IC50

| CHEMICAL_SMILES | SYSTEM | TEST_READOUT | EXPERIMENTAL_RESULT |
| --- | --- | --- | --- |
| O=[N+]([O-])c1ccc(-c2csc(NN=C3CCCC3)n2)cc1 | Amine oxidase [flavin-containing] A (Homo sapiens, UniProt P21397) | IC50 | 0.344 µM |
| O=[N+]([O-])c1ccc(-c2csc(NN=C3CCCCCC3)n2)cc1 | Amine oxidase [flavin-containing] A (Homo sapiens, UniProt P21397) | IC50 | 17.9 µM |
| Clc1ccc(-c2csc(NN=C3CCCC3)n2)c(Cl)c1 | Amine oxidase [flavin-containing] A (Homo sapiens, UniProt P21397) | IC50 | 54.5 µM |
| Fc1ccc(-c2csc(NN=C3CCCCCC3)n2)c(F)c1 | Amine oxidase [flavin-containing] A (Homo sapiens, UniProt P21397) | IC50 | 7.23 µM |
| N#Cc1ccc(-c2csc(NN=C3CCCC3)n2)cc1 | Amine oxidase [flavin-containing] A (Homo sapiens, UniProt P21397) | IC50 | 0.644 µM |
| Clc1ccc(-c2csc(NN=C3CCCCCC3)n2)c(Cl)c1 | Amine oxidase [flavin-containing] A (Homo sapiens, UniProt P21397) | IC50 | 59.3 µM |
| Fc1ccc(-c2csc(NN=C3CCCCC3)n2)c(F)c1 | Amine oxidase [flavin-containing] A (Homo sapiens, UniProt P21397) | IC50 | 45.8 µM |
